# measurement.description: Chemical hydrolysis in phosphate buffer saline (PBS, pH 7.3)
# Assay type: physicochemical
# run.conditions: PBS pH 7.3, 37 °C, read-out: PBS pH 7.3 t 1/2 (converted)
log10 of half-life at 1.9 mM for assorted compounds
In plain terms, each number is the log10 of measured half-life at 1.9 mM in days.

# annotated cases, reported log10 of half-life at 1.9 mM shown
CCCCCCCCCCCCCCCCCCOP(=O)(OCc1ccc(OC(=O)CCCC)cc1)OP(=O)(O)OP(=O)(O)OCC1OC(n2cc(C)c(=O)[nH]c2=O)CC1N=[N+]=[N-] (stereo not shown) [10by, γ‐(AB‐C4;alkyl‐C18)‐AZTTP] = 1.24
CCCCCCCCCCCCCCCCCCP(=O)(OCc1ccc(OC(=O)CCCC)cc1)OP(=O)(O)OP(=O)(O)OC[C@H]1O[C@@H](n2ccc(=O)[nH]c2=O)C[C@@H]1F (stereo partly shown) [10fz] = 0.93
CCCCCCCCCCCCCCCCCCOP(=O)(OCc1ccc(OC(=O)CCCC)cc1)OP(=O)(O)OP(=O)(O)OC[C@@H]1O[C@H](n2cc(F)c(N)nc2=O)CS1 (stereo partly shown) [10cy, γ‐(AB‐C4;alkyl‐C18)‐FTCTP] = 1.02
CCCCCCCCCCCCCCCCCCP(=O)(OCc1ccc(OC(=O)CCCC)cc1)OP(=O)(O)OP(=O)(O)OC[C@H]1O[C@@H](n2cc(C)c(=O)[nH]c2=O)C[C@@H]1F (stereo partly shown) [10ez] = 0.33

Exercise: Consider the compound CCCCCCCCCCCCCCCCCCOP(=O)(OCc1ccc(OC(=O)CCCC)cc1)OP(=O)(O)OP(=O)(O)OC[C@H]1O[C@@H](n2ccc(=O)[nH]c2=O)C[C@@H]1F (stereo partly shown) [10fy] and give its measured log10 of half-life at 1.9 mM.
Key: 1.18

Exercise: Consider the compound CCCCCCCCCCCCCCCCCCP(=O)(OCc1ccc(OC(=O)CCCC)cc1)OP(=O)(O)OP(=O)(O)OC[C@H]1O[C@@H](n2cc(C)c(=O)[nH]c2=O)C[C@@H]1N=[N+]=[N-] (stereo partly shown) [10bz, γ‐(AB‐C4)‐γ‐C‐(alkyl‐C18)‐AZTTP] and give its measured log10 of half-life at 1.9 mM.
Key: 1.61

Exercise: Consider the compound CCCCCCCCCCCCCCCCCCOP(=O)(OCc1ccc(OC(=O)CCCC)cc1)OP(=O)(O)OP(=O)(O)OC[C@@H]1C=C[C@H](n2cnc3c(NC4CC4)nc(N)nc32)C1 (stereo partly shown) [10hy] and give its measured log10 of half-life at 1.9 mM.
Key: 0.28

Exercise: Consider the compound CCCCCCCCCCCCCCCCCCOP(=O)(OCC(CC)CCCC)OP(=O)(O)OP(=O)(O)OC[C@@H]1C=C[C@H](n2cnc3c(NC4CC4)nc(N)nc32)C1 (stereo partly shown) [10hw] and give its measured log10 of half-life at 1.9 mM.
Key: 0.88

Exercise: Consider the compound CCCCCCCCCCCCCCCCCCOP(=O)(OCc1ccc(OC(=O)CCCC)cc1)OP(=O)(O)OP(=O)(O)OC[C@H]1O[C@@H](n2cc(Cl)c(=O)[nH]c2=O)C[C@@H]1F (stereo partly shown) [10dy] and give its measured log10 of half-life at 1.9 mM.
Key: 1.27

Exercise: Consider the compound CCCCCCCCCCCCCCCCCCOP(=O)(OCc1ccc(OC(=O)CCCC)cc1)OP(=O)(O)OP(=O)(O)OC[C@H]1O[C@@H](n2cc(/C=C/Br)c(=O)[nH]c2=O)C[C@@H]1O (stereo partly shown) [10gy] and give its measured log10 of half-life at 1.9 mM.
Key: 1.40
